# IC50, rat NGF-dependent survival of mouse E13.5 trigeminal neurons (15 pM NGF) annotations
- TEST_TARGET: rat nerve growth factor (rat, UniProt P25427 122-241)
- Sequence (P25427 122-241 limits assumed): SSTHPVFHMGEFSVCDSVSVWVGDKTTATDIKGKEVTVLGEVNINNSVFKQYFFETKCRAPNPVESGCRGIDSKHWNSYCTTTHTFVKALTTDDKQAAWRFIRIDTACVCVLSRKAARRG
- EXPERIMENT_NOTES: cell-based or functional assay
Give your result in pM as a bare value.

Worked examples, 2 binders total:
BINDER | NUMERIC_READOUT
clone 3C (Fab) (Fab, V domains shown, same L1, L2, H1, H2 mutations as 3E; See note of m8; also called Fab 3C) VH: QVQLQESGPGLVKPSETLSLTCTVSGFSLIGYDLNWIRQPPGKGLEWIGIIWGDGTTDYNSAVKSRVTISKDTSKNQFSLKLSSVTAADTAVYYCARGGYWYATSYYFDYWGQGTLVTVS VL: DIQMTQSPSSLSASVGDRVTITCRASQSISNNLNWYQQKPGKAPKLLIYYTSRFHSGVPSRFSGSGSGTDFTFTISSLQPEDIATYYCQQERTLPYTFGQGTKLEIKR | 31.6
H19-L129 (combined clone, H1 H2 L1 L2 matured) (Fab, V domains shown, See note of m8; also called H19-L129 Fab; Fab H19-L129) VH: QVQLQESGPGLVKPSETLSLTCTVSGFSLIGYDLNWIRQPPGKGLEWIGIIWGDGTTDYNSAVKSRVTISKDTSKNQFSLKLSSVTAADTAVYYCARGGYYYGTSYYFDYWGQGTLVTVS VL: DIQMTQSPSSLSASVGDRVTITCRASQSISNNLNWYQQKPGKAPKLLIYYTSRFHSGVPSRFSGSGSGTDFTFTISSLQPEDIATYYCQQSKTLPYTFGQGTKLEIKR | 31

Switching to the query record.
Please give measured IC50, rat NGF-dependent survival of mouse E13.5 trigeminal neurons (15 pM NGF) of the following entry: 8L2-6D5 (CDR-grafted antibody with framework mutation V71K) (Fab, V domains shown, Fab (human IgG2 CH1 + C-kappa, His tag at heavy chain C terminus); also called 8L2-6D5 Fab; 8L2-6D5 (control)) VH: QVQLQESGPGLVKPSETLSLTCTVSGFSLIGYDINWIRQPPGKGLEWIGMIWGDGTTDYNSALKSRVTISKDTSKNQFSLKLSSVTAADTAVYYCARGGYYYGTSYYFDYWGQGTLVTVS VL: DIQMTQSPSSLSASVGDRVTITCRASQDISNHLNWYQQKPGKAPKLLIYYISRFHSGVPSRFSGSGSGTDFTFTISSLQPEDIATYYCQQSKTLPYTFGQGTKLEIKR
730
